study_system: cyno MSLN (Macaca fascicularis)
method_summary: BLI (Octet), bsAb in 1+1 Fab-scFv-Fc format
pKd: −log10 of the molar value.

# binder, pKd
data = [
    ("XENP32551 (bispecific antibody, part only; not given: anti-CD3 scFv-Fc arm, constant regions, V domains shown, not shown: another chain or arm of the molecule; a dimerising Fc or GST; small tags and cut ends) VH: QVQLVQSGAEVKKPGASVKVSCKASGYTFTSYYMHWVRQAPGQGLEWMGMIHPNSDNTIYYEKFQGRVTMTVDKSISTAYMELSRLRSDDTAVYYCAIIITPVVPKFDYWGQGTLVTVSS VL: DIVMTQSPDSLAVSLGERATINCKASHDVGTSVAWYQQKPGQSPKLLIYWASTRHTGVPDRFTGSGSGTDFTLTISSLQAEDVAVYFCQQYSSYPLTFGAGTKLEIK", 8.78),
    ("XENP32554 (bispecific antibody, part only; not given: anti-CD3 scFv-Fc arm, constant regions, V domains shown, not shown: another chain or arm of the molecule; a dimerising Fc or GST) VH: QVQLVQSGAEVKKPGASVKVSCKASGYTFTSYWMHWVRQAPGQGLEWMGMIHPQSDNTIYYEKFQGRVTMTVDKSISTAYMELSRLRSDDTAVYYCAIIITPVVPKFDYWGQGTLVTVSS VL: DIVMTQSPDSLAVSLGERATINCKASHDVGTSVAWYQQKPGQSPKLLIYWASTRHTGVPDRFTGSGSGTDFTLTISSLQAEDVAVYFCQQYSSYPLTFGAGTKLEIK", 9.38),
    ("XENP32553 (bispecific antibody, part only; not given: anti-CD3 scFv-Fc arm, constant regions, V domains shown, not shown: another chain or arm of the molecule; a dimerising Fc or GST; small tags and cut ends) VH: QVQLVQSGAEVKKPGASVKVSCKASGYTFTSYWMHWVRQAPGQGLEWMGMINPNSDNTIYYEKFQGRVTMTVDKSISTAYMELSRLRSDDTAVYYCAIIITPVVPKFDYWGQGTLVTVSS VL: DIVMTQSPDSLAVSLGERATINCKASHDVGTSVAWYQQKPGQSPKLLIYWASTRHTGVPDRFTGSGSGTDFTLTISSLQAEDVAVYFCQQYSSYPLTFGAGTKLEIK", 9.23),
]
